Attribution: paper PMC12583827

Target: urease of P. mirabilis cell free extracts (Proteus mirabilis, UniProt P17086)
Construct: 20ul of cell-free extract were distributed into a 96-well plate in place of the whole cell bacterial suspensions; endogenous in cells; host or cells: Proteus mirabilis HI4320, urea-induced; freeze-thaw and sonication lysate, clarified supernatant
Sequence (P17086 whole entry): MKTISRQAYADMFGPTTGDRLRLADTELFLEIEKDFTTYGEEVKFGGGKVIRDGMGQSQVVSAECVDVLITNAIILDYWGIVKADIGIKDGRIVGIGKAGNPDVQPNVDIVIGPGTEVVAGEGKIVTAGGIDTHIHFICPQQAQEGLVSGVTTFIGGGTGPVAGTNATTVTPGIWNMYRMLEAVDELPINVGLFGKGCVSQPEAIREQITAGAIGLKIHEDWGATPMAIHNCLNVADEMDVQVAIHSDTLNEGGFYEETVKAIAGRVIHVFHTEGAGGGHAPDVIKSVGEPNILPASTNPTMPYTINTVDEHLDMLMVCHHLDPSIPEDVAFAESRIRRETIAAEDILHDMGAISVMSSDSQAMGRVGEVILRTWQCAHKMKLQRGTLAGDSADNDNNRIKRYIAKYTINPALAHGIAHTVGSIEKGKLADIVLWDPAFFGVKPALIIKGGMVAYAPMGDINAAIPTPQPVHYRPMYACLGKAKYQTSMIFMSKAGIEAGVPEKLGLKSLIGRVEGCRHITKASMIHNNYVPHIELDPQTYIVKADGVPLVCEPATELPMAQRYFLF
Sequence (P17088 whole entry, further chain): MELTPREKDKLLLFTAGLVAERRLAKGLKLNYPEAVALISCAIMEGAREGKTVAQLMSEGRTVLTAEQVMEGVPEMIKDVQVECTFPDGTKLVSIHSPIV
Sequence (P17087 whole entry, further chain): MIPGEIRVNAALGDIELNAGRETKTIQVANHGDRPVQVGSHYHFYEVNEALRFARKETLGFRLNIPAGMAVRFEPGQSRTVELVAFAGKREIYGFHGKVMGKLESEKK
Type: biochemical
Details: Michaelis-Menten parameters, Lineweaver-Burke plot
Structures can show the parent of a compound that is named as a salt. Where a SMILES comes first, the peptide text is derived from it.
readoutName: type of urease inhibition

Below, each entry is followed by its recorded type of urease inhibition result.
{"columns": ["compound", "testValue"],
 "data": [
  ["NCCc1c[nH]cn1 [Histamine, histamine dihydrochloride]", "mixed inhibitors"],
  ["O=C(O)[C@@H](O)Cc1cnc[nH]1 [L-imidazole lactate, L-imidazolelactic acid]", "mixed inhibitors"],
  ["c1c[nH]cn1 [imidazole, Imidazole]", "mixed inhibitors"],
  ["Cl.O=C(O)Cc1cnc[nH]1 [4-imidazole acetate]", "mixed inhibitors"]
]}

Okay, now this compound:
Item CC(C)C[C@H](N)C(=O)NCC(=O)O [leucylglycine, L-Leucylglycine hydrate] (H-Leu-Gly-OH) has what recorded type of urease inhibition?
mixed inhibitors
